Numbers sourced from patent US10005774B2.

SYSTEM TESTED: Syk (Homo sapiens)
PROTOCOL DESCRIPTION: High Throughput Syk Biochemical Assay (KinEASE TR-FRET)
PROTOCOL CONDITIONS: table 'ALL NEW COMPOUNDS IN 2014', 20 μM ATP, 1 μM biotinylated peptide, 0.015 nM Syk, 30 min at room temperature, read-out: Syk IC50
MEASURED METRIC: pIC50
// pIC50: -log10(molar conc.)

### Prompt Find the measured pIC50 of `Cc1cnc(-c2cc(O[C@H](C)[C@H]3CNC(=O)C3)c3c(c2)ncn3C2CC2)s1` and report it.
### Response 8.76

### Prompt Find the measured pIC50 of `C[C@@H](Oc1nc(-c2cnc(N3CCN(C4COC4)CC3)c(F)c2)cc2ncn(C3CC3)c12)[C@H]1CNC(=O)C1` and report it.
### Response 7.76

### Prompt Find the measured pIC50 of `C[C@@H](Oc1cc(-c2ccc(N3CC4CC(C3)O4)cn2)cc2ncn(C3CC3)c12)[C@H]1CNC(=O)C1` and report it.
### Response 8.25

### Prompt Find the measured pIC50 of `C[C@@H](Oc1cc(-c2ccc(N3CCC(C4COC4)CC3)cn2)cc2ncn(C3CC3)c12)[C@H]1CNC(=O)C1` and report it.
### Response 8.33

---

SYSTEM TESTED: Syk (Homo sapiens, UniProt P43405)
PROTOCOL DESCRIPTION: High Throughput Syk Biochemical Assay (KinEASE TR-FRET)
PROTOCOL CONDITIONS: table 'ALL NEW COMPOUNDS IN 2014', 20 μM ATP, 1 μM biotinylated peptide, 0.015 nM Syk, 30 min at room temperature, read-out: Syk IC50
// boundary case: IC50 equal to 2 nM maps to n; strictly smaller maps to y

### Prompt State whether 2 nM exceeds IC50 recorded for `C[C@@H](Oc1cc(-c2cnc(C3CCOCC3)s2)cc2ncn(C3CC3)c12)[C@H]1CNC(=O)C1` .
### Response y

### Prompt State whether 2 nM exceeds IC50 recorded for `Cc1nnc(-c2cc(O[C@H](C)[C@H]3CNC(=O)C3)c3c(c2)ncn3C2CC2)s1` .
### Response n

### Prompt State whether 2 nM exceeds IC50 recorded for `Cc1cc(-c2cc(O[C@H](C)[C@H]3CNC(=O)C3)c3c(c2)ncn3C2CC2)nn1C` .
### Response n

### Prompt State whether 2 nM exceeds IC50 recorded for `CCOc1cc(-c2cc(O[C@H](C)[C@H]3CNC(=O)C3)c3c(c2)ncn3C2CC2)ccc1OC` .
### Response n

### Prompt State whether 2 nM exceeds IC50 recorded for `C[C@@H](Oc1cc(-c2cnc(C(C)(C)O)s2)cc2ncn(C3CC3)c12)[C@H]1CNC(=O)C1` .
### Response y

---

Please respond with reported pIC50 for every item in the list.
SYSTEM TESTED: Syk (Homo sapiens)
PROTOCOL DESCRIPTION: High Throughput Syk Biochemical Assay (KinEASE TR-FRET)
PROTOCOL CONDITIONS: table 'ALL NEW COMPOUNDS IN 2014', 20 μM ATP, 1 μM biotinylated peptide, 0.015 nM Syk, 30 min at room temperature, read-out: Syk IC50
// pIC50: -log10(molar conc.)

### Prompt Find the measured pIC50 of `C[C@@H](Oc1nc(-c2ccnc(C3C=NN=C3)c2)cc2ncn(C3CC3)c12)[C@H]1CNC(=O)C1` and report it.
### Response 8.07

### Prompt Find the measured pIC50 of `C[C@@H](Oc1nc(-c2ccc(C3CCN(C4COC4)CC3)cc2)cc2ncn(C3CC3)c12)[C@H]1CNC(=O)C1` and report it.
### Response 8.64

### Prompt Find the measured pIC50 of `Cc1cc(-c2cc(O[C@H](C)[C@H]3CNC(=O)C3)c3c(c2)ncn3C2CC2)ccc1N1CCN(C2COC2)CC1` and report it.
### Response 8.67

### Prompt Find the measured pIC50 of `Cc1nc(-c2cc(O[C@H](C)[C@H]3CNC(=O)C3)c3c(c2)ncn3C2CC2)sc1C` and report it.
### Response 8.85

### Prompt Find the measured pIC50 of `C[C@@H](Oc1nc(-c2ccc(N3CCN(C4COC4)CC3)nc2)cc2ncn(C(F)F)c12)[C@H]1CNC(=O)C1` and report it.
### Response 8.54

### Prompt Find the measured pIC50 of `C[C@@H](Oc1nc(-c2cnn(CC(C)(C)O)c2)cc2ncn(C3CC3)c12)[C@H]1CNC(=O)C1` and report it.
### Response 8.02

### Prompt Find the measured pIC50 of `C[C@@H](Oc1nc(-c2ccc3c(c2)N(C)C(=O)OC3(C)C)cc2ncn(C)c12)[C@H]1CNC(=O)C1` and report it.
### Response 8.60

### Prompt Find the measured pIC50 of `Cc1nc(-c2cc(O[C@H](C)[C@H]3CNC(=O)C3)c3c(c2)ncn3C2CC2)cn1C` and report it.
### Response 8.22

### Prompt Find the measured pIC50 of `C[C@@H](Oc1nc(-c2ccccc2)cc2ncn(C3CC3)c12)[C@H]1CNC(=O)C1` and report it.
### Response 7.90

### Prompt Find the measured pIC50 of `C[C@@H](Oc1cc(-c2ccc(N3CCN(C4COC4)CC3)cc2F)cc2ncn(C3CC3)c12)[C@H]1CNC(=O)C1` and report it.
### Response 8.56

### Prompt Find the measured pIC50 of `C[C@@H](Oc1cc(-c2ccn(C)n2)cc2ncn(C3CC3)c12)[C@H]1CNC(=O)C1` and report it.
### Response 7.98

### Prompt Find the measured pIC50 of `C[C@@H](Oc1nc(-c2cnc3c(c2)N(C)C(=O)C3(C)C)cc2ncn(C3CC3)c12)[C@H]1CNC(=O)C1` and report it.
### Response 8.05

### Prompt Find the measured pIC50 of `C[C@@H](Oc1nc(-c2ccc(N3CCN(S(=O)(=O)C4COC4)CC3)cc2)cc2ncn(C3CC3)c12)[C@H]1CNC(=O)C1` and report it.
### Response 8.88

### Prompt Find the measured pIC50 of `C[C@@H](Oc1nc(-c2ccc(N3CCN(C4COC4)CC3)c(F)c2)cc2ncn(C3CC3)c12)[C@H]1CNC(=O)C1` and report it.
### Response 8.63

### Prompt Find the measured pIC50 of `C[C@@H](Oc1cc(-c2cnn(C(C)(C)CO)c2)cc2ncn(C3CC3)c12)[C@H]1CNC(=O)C1` and report it.
### Response 8.70

### Prompt Find the measured pIC50 of `C[C@@H](Oc1nc(-c2cnc(C(F)(F)F)s2)cc2ncn(C3CC3)c12)[C@H]1CNC(=O)C1` and report it.
### Response 7.17

### Prompt Find the measured pIC50 of `C[C@@H](Oc1nc(-c2cnn(C3COC3)c2)cc2ncn(C3CC3)c12)[C@H]1CNC(=O)C1` and report it.
### Response 8.33

---

SYSTEM TESTED: Syk (Homo sapiens, UniProt P43405)
PROTOCOL DESCRIPTION: High Throughput Syk Biochemical Assay (KinEASE TR-FRET)
PROTOCOL CONDITIONS: table 'ALL NEW COMPOUNDS IN 2014', 20 μM ATP, 1 μM biotinylated peptide, 0.015 nM Syk, 30 min at room temperature, read-out: Syk IC50
Method: High Throughput Syk Biochemical Assay Syk activity was measured using KinEASE (Cisbio), a time-resolved fluorescence resonance energy transfer (TR-FRET) immunoassay. In this assay. Syk-catalyzes the phosporylation of a XL665-labeled peptide substrate. Europium conjugated phospho-tyrosine specific antibody binds the resulting phosphorylated peptide. Formation of phosphorylated peptide is quantified by TR-FRET with Europium as the donor and XL665 the acceptor in a 2-step endpoint assay. […]
Each entry falls in a class defined on IC50; the bands are lower level: < 3 nM; middle level: ≥ 3 nM and < 8 nM; upper level: ≥ 8 nM

### Prompt Into which bin does this compound go? `C[C@@H](Oc1nc(-c2ccc3c(c2)NC(=O)OC3(C)C)cc2ncn(C)c12)[C@H]1CNC(=O)C1`
### Response lower level

### Prompt Into which bin does this compound go? `C[C@@H](Oc1nc(-c2ccc(N3CCn4c(nnc4C(F)(F)F)C3)cc2)cc2ncn(C3CC3)c12)[C@H]1CNC(=O)C1`
### Response lower level

### Prompt Into which bin does this compound go? `Cc1ccc(-c2cc3ncn(C4CC4)c3c(O[C@H](C)[C@H]3CNC(=O)C3)n2)s1`
### Response middle level

### Prompt Into which bin does this compound go? `C[C@@H](Oc1nc(-c2ccc3c(c2)NC(=O)C3)cc2ncn(C3CC3)c12)[C@H]1CNC(=O)C1`
### Response lower level

### Prompt Into which bin does this compound go? `C[C@@H](Oc1nc(-c2ccc3c(c2)NC(=O)C32CCN(S(C)(=O)=O)CC2)cc2ncn(C3CC3)c12)[C@H]1CNC(=O)C1`
### Response lower level

### Prompt Into which bin does this compound go? `C[C@@H](Oc1cc(-c2ccc3c(cnn3C)c2)cc2ncn(C3CC3)c12)[C@H]1CNC(=O)C1`
### Response middle level

### Prompt Into which bin does this compound go? `C[C@@H](Oc1nc(-c2ccc3c(c2)OCCO3)cc2ncn(C3CC3)c12)[C@H]1CNC(=O)C1`
### Response middle level

### Prompt Into which bin does this compound go? `C[C@@H](Oc1nc(-c2ccc(N3CC(N4CCOCC4)C3)cc2)cc2ncn(C3CC3)c12)[C@H]1CNC(=O)C1`
### Response middle level

### Prompt Into which bin does this compound go? `COc1cc(-c2cc(O[C@H](C)[C@H]3CNC(=O)C3)c3c(c2)ncn3C2CC2)ccc1OC(F)F`
### Response upper level

### Prompt Into which bin does this compound go? `C[C@@H](Oc1cc(-c2ccc3c(c2)NCCN3C)cc2ncn(C3CC3)c12)[C@H]1CNC(=O)C1`
### Response middle level

### Prompt Into which bin does this compound go? `COc1cc(-c2cc3ncn(C4CC4)c3c(O[C@H](C)[C@H]3CNC(=O)C3)n2)cnc1OC`
### Response upper level

### Prompt Into which bin does this compound go? `C[C@@H](Oc1cc(-c2ccc3c(c2)NCCO3)cc2ncn(C3CC3)c12)[C@H]1CNC(=O)C1`
### Response lower level

### Prompt Into which bin does this compound go? `C[C@@H](Oc1nc(-c2ccc(C3(O)CC3)cc2)cc2ncn(C3CC3)c12)[C@H]1CNC(=O)C1`
### Response upper level

### Prompt Into which bin does this compound go? `C[C@@H](Oc1cc(-c2ccc(N3CCN(C4COC4)CC3)nc2)cc2ncn(C3CC3)c12)[C@H]1CNC(=O)C1`
### Response middle level

### Prompt Into which bin does this compound go? `C[C@@H](Oc1cc(-c2cccc(N)n2)cc2ncn(C3CC3)c12)[C@H]1CNC(=O)C1`
### Response upper level

### Prompt Into which bin does this compound go? `C[C@@H](Oc1cc(-c2cnn(C)c2)cc2ncn(C3CC3)c12)[C@H]1CNC(=O)C1`
### Response middle level

### Prompt Into which bin does this compound go? `C[C@@H](Oc1nc(-c2ccc(N3CC4CC(C3)O4)cc2)cc2ncn(C3CC3)c12)[C@H]1CNC(=O)C1`
### Response middle level

### Prompt Into which bin does this compound go? `C[C@@H](Oc1cc(-c2cnn(C)n2)cc2ncn(C3CC3)c12)[C@H]1CNC(=O)C1`
### Response upper level

### Prompt Into which bin does this compound go? `C[C@@H](Oc1nc(-c2ccc(N3CCN(C4COC4)CC3)cc2F)cc2ncn(C3CC3)c12)[C@H]1CNC(=O)C1`
### Response upper level

### Prompt Into which bin does this compound go? `C[C@@H](Oc1nc(-c2ccc3oc(=O)n(C)c3c2)cc2ncn(C3CC3)c12)[C@H]1CNC(=O)C1`
### Response upper level

### Prompt Into which bin does this compound go? `Cc1nc(-c2cc(O[C@H](C)[C@H]3CNC(=O)C3)c3c(c2)ncn3C2CC2)cs1`
### Response upper level

### Prompt Into which bin does this compound go? `C[C@@H](Oc1cc(-c2cnn(-c3ccncc3)c2)cc2ncn(C3CC3)c12)[C@H]1CNC(=O)C1`
### Response middle level

### Prompt Into which bin does this compound go? `C[C@@H](Oc1cc(-c2ccc(N3CCN(C4COC4)CC3)c(C#N)c2)cc2ncn(C3CC3)c12)[C@H]1CNC(=O)C1`
### Response middle level

### Prompt Into which bin does this compound go? `Cc1nn(C)c2ccc(-c3cc4ncn(C5CC5)c4c(O[C@H](C)[C@H]4CNC(=O)C4)n3)cc12`
### Response middle level

### Prompt Into which bin does this compound go? `C[C@@H](Oc1cc(-c2cnccn2)cc2ncn(C3CC3)c12)[C@H]1CNC(=O)C1`
### Response upper level

### Prompt Into which bin does this compound go? `C[C@@H](Oc1cc(-c2ccc(N3CCN(C4COC4)CC3)nn2)cc2ncn(C3CC3)c12)[C@H]1CNC(=O)C1`
### Response upper level

### Prompt Into which bin does this compound go? `C[C@@H](Oc1cc(-c2ccccc2)cc2ncn(C3CC3)c12)[C@H]1CNC(=O)C1`
### Response upper level

### Prompt Into which bin does this compound go? `C[C@@H](Oc1nc(-c2ccc3c(C4CC4)n[nH]c3c2)cc2ncn(C3CC3)c12)[C@H]1CNC(=O)C1`
### Response middle level

### Prompt Into which bin does this compound go? `COc1cc(-c2cc3ncn(C4CC4)c3c(O[C@H](C)[C@H]3CNC(=O)C3)n2)ccc1OCC(F)F`
### Response lower level

### Prompt Into which bin does this compound go? `C[C@@H](Oc1nc(-c2ccc(N3CCN(C4COC4)CC3)nc2)cc2ncn(C)c12)[C@H]1CNC(=O)C1`
### Response upper level

### Prompt Into which bin does this compound go? `C[C@@H](Oc1nc(-c2cnc(C(C)(C)O)s2)cc2ncn(C3CC3)c12)[C@H]1CNC(=O)C1`
### Response middle level

### Prompt Into which bin does this compound go? `C[C@@H](Oc1cc(-c2cnn(CC(C)(C)O)c2)cc2ncn(C3CC3)c12)[C@H]1CNC(=O)C1`
### Response lower level

### Prompt Into which bin does this compound go? `CCOc1ccc(-c2cc3ncn(C4CC4)c3c(O[C@H](C)[C@H]3CNC(=O)C3)n2)cc1OC`
### Response lower level
